pIC50: −log10 of the molar value.
A compilation of pIC50 values for UniProt:P06213 from the published literature.

Req: Could you share what pIC50 was measured for `CCOC(=O)c1ccccc1Oc1nc[nH]c(=O)c1/C=C/C(C)=O` , tested on UniProt:P06213?
Resp: < 4.40

Req: Could you share what pIC50 was measured for COC(=O)c1cccc(Oc2nc[nH]c(=O)c2C2CC(C)=NN2C(C)=O)c1 (centres undefined) , tested on UniProt:P06213?
Resp: < 4.40

Req: Could you share what pIC50 was measured for `Cc1ncnc(Nc2ccc(OCc3cccc(F)c3)c(Cl)c2)c1C#Cc1ccc(CN2CCCC2)c(F)c1` , tested on UniProt:P06213?
Resp: < 4.00

Req: Could you share what pIC50 was measured for `CN1CCN(Cc2ccc(NC(=O)c3cc(-c4ccc5c(c4)OCO5)cn(C)c3=O)cc2)CC1` , tested on UniProt:P06213?
Resp: < 4.40

Req: Could you share what pIC50 was measured for `CN(C(=O)c1ccccc1)c1ccc2c(c1)[nH]/c(=N\C(=O)c1ccc(-c3cccnc3)s1)n2CCC(N)=O` , tested on UniProt:P06213?
Resp: < 5.22

Req: Could you share what pIC50 was measured for `CN(C(=O)c1ccccc1)c1ccc2c(c1)[nH]/c(=N\C(=O)c1cnco1)n2CCC(N)=O` , tested on UniProt:P06213?
Resp: < 5.22

Req: Could you share what pIC50 was measured for `CCOc1cccc(/C=C2/SC(=O)NC2=O)c1O` , tested on UniProt:P06213?
Resp: < 4.00

Req: Could you share what pIC50 was measured for `O=C(c1ccc(F)c(F)c1Nc1ccc(I)cc1F)N1CC(O)([C@@H]2CCCCN2)C1` , tested on UniProt:P06213?
Resp: < 5.00

Req: Could you share what pIC50 was measured for `COc1cc(CN2CCN(C)CC2)ccc1NC(=O)c1cc(-c2ccc3c(c2)OCO3)cnc1O` , tested on UniProt:P06213?
Resp: < 4.40

Req: Could you share what pIC50 was measured for `Cc1cc(C)c(C)c(-c2cc3cnc(NCCCN4CCN(C)CC4)nc3nc2NC(=O)NC(C)(C)C)c1C` , tested on UniProt:P06213?
Resp: < 4.30

Req: Could you share what pIC50 was measured for `CCOC(=O)/C=C/c1c(Oc2ccc(C(C)(C)C)cc2)nc[nH]c1=O` , tested on UniProt:P06213?
Resp: < 4.40

Req: Could you share what pIC50 was measured for `O=C(Cc1ccc2ccccc2c1)Nc1cc(C2CC2)n[nH]1` , tested on UniProt:P06213?
Resp: < 5.00

Req: Could you share what pIC50 was measured for `O=C1Cc2cnc(Nc3ccc(O)cc3)nc2-c2cnccc2N1` , tested on UniProt:P06213?
Resp: < 4.00

Req: Could you share what pIC50 was measured for `Cc1cc(C)c(C)c(-c2cc3cnc(N)nc3nc2NC(=O)NC(C)(C)C)c1C` , tested on UniProt:P06213?
Resp: < 4.30

Req: Could you share what pIC50 was measured for `CCCCC(=O)Nc1ccc2c(c1)/C(=C1/Nc3ccccc3/C1=N\O)C(=O)N2` , tested on UniProt:P06213?
Resp: < 5.00

Req: Could you share what pIC50 was measured for `CC(=O)/C=C/c1c(Oc2ccc(C#N)cc2)nc[nH]c1=O` , tested on UniProt:P06213?
Resp: < 4.40

Req: Could you share what pIC50 was measured for `Cn1c(=O)c2cc3c(nc2n(C)c1=O)-c1ncccc1NC(=O)C3` , tested on UniProt:P06213?
Resp: < 4.00

Req: Could you share what pIC50 was measured for `CN(C(=O)c1ccccc1)c1ccc2c(c1)nc(NC(=O)c1ccc(N3CCOCC3)s1)n2CCC(N)=O` , tested on UniProt:P06213?
Resp: < 5.22

Req: Could you share what pIC50 was measured for `O=C1Cc2cnc(Nc3ccc(O)cc3)nc2-c2ncccc2N1` , tested on UniProt:P06213?
Resp: < 4.00
